Experiment: NCI Yeast Anticancer Drug Screen. Data for the mec2-1 strain (AID 157)
Details: S. cerevisiae mec2-1 strain, at 50.0 µM, hits give high values
About 79,000 compounds went through this panel and 15% of them were active in at least one assay; those are over-represented in the sample as a whole.
Returns criterion met if the recorded growth inhibition is greater than or equal to -10%, and criterion not met otherwise.

Task: Could you verify whether the entry `COc1ccc(C(=O)NNC(=O)c2ccc3ccccc3c2)cc1` shows growth inhibition of no less than -10%?
Output: criterion met

Task: Could you verify whether the entry `CCOC(=O)NCC(=O)NCC(=O)NCC(N)=O` shows growth inhibition of no less than -10%?
Output: criterion not met

Task: Could you verify whether the entry CC(=O)OC1c2ccccc2C(=O)C1(OC(C)=O)c1ccccc1 (stereo unspecified) shows growth inhibition of no less than -10%?
Output: criterion met

Task: Could you verify whether the entry `CC(=O)NC1=NC(=O)/C(=C/c2ccc(/C=C3/C(=O)N=C(NC(C)=O)N3C)cc2)N1C` shows growth inhibition of no less than -10%?
Output: criterion met

Task: Could you verify whether the entry `CC1=C(C(=O)Nc2ccccc2C)C(c2ccc(N(C)C)cc2)C(C(=O)Nc2ccccc2C)=C(C)N1` shows growth inhibition of no less than -10%?
Output: criterion not met

Task: Could you verify whether the entry `CCNC(=O)CCN(C(=O)O)S(=O)(=O)c1ccc(NC(=O)c2ccccc2)cc1` shows growth inhibition of no less than -10%?
Output: criterion not met

###

Assay: NCI Yeast Anticancer Drug Screen. Data for the bub3 strain (AID 167)
Conditions: S. cerevisiae bub3 mutant strain, at 50.0 µM, hits give high values
Compounds without any hit were thinned out: in the full panel of roughly 79,000, 15% have a hit.
Provide the recorded growth inhibition for the entries that follow.
Reply with just the number (in %).

Task: Consider the compound shown here: `O=C(CCCl)Nc1c(Cl)cccc1Cl` What is its recorded growth inhibition?
Output: 21.1

Task: Consider the compound shown here: O=C(NC(Cc1ccccc1)C(=O)NNc1ccccc1Cl)OCc1ccccc1 (stereo unspecified) What is its recorded growth inhibition?
Output: 80

Task: Consider the compound shown here: CC1=C(O)/C(=C/C(C)CCC/C(C)=C/C=C/C(C)CCCc2ccoc2)OC1=O (stereo unspecified) What is its recorded growth inhibition?
Output: 7.45

Task: Consider the compound shown here: `CC(=O)Nc1ccc(OC(=O)Nc2ccc(C)c(NC(=O)Oc3ccc(NC(C)=O)cc3)c2)cc1` What is its recorded growth inhibition?
Output: 17.2

Task: Consider the compound shown here: CC(O)CC(C)(C)O (stereo unspecified) What is its recorded growth inhibition?
Output: 15.3

Task: Consider the compound shown here: C=C1C(=O)OC2CC3(C)C=CC(=O)C(=C)C3CC12 (stereo unspecified) What is its recorded growth inhibition?
Output: 26.8

Task: Consider the compound shown here: `NC(N)=NNC(=O)C(=O)O` What is its recorded growth inhibition?
Output: -7.6

Task: Consider the compound shown here: O=c1ccn(C2OC(CO)C(O)C2Cl)c(=O)[nH]1 (stereo unspecified) What is its recorded growth inhibition?
Output: 4.9

Task: Consider the compound shown here: `CCOc1ccc(C(=O)OC)cc1` What is its recorded growth inhibition?
Output: 38.8

Task: Consider the compound shown here: `NC(=O)c1nnn(-c2ccccc2)n1` What is its recorded growth inhibition?
Output: -5.75

Task: Consider the compound shown here: `O=C(NCCO)Nc1ccccc1F` What is its recorded growth inhibition?
Output: -7.75

Task: Consider the compound shown here: O=C1OCC2Cc3ccccc3C(c3ccccc3)=C12 (stereo unspecified) What is its recorded growth inhibition?
Output: 11.3

Task: Consider the compound shown here: `Fc1cccc(Cl)c1/C=N\N=C1c2ccccc2-c2ccccc21` What is its recorded growth inhibition?
Output: -57.8

Task: Consider the compound shown here: `Cc1ccc(C(=O)O)c(=O)[nH]1` What is its recorded growth inhibition?
Output: 7.3

Task: Consider the compound shown here: `Cn1nc(-c2ccccc2)c2c(/C=C/c3ccc(F)cc3)onc2c1=O` What is its recorded growth inhibition?
Output: 0.05

Task: Consider the compound shown here: CN1C(=O)C(O)(CC(=O)c2ccccc2)c2ccccc21 (stereo unspecified) What is its recorded growth inhibition?
Output: 23.4

Task: Consider the compound shown here: CC1(C(=O)N2c3ccccc3C=CC2C#N)CC2C=CC1C2 (stereo unspecified) What is its recorded growth inhibition?
Output: -2.4

Task: Consider the compound shown here: `CCN1CCCCC(=N\O)/C(=N/O)CCCC1` What is its recorded growth inhibition?
Output: -51.6

Task: Consider the compound shown here: `CCS(=O)(=O)OCCOC` What is its recorded growth inhibition?
Output: -14.8

Task: Consider the compound shown here: COc1cccc(C(=O)C(CCC#N)c2ccccc2)c1 (stereo unspecified) What is its recorded growth inhibition?
Output: 42.8

Task: Consider the compound shown here: `Cc1ccc(S(=O)(=O)OCC2=C(COS(=O)(=O)c3ccc(C)cc3)C3c4ccccc4C2c2ccccc23)cc1` What is its recorded growth inhibition?
Output: -1.35

Task: Consider the compound shown here: `Cc1ccc2c(c1)[nH]c(=S)n2C=C1C(=O)NC(=O)NC1=O` What is its recorded growth inhibition?
Output: -7.35

Task: Consider the compound shown here: `O=C(Nn1cnc2ccccc2c1=O)c1ccc(NC(=S)Nc2ccccc2)cc1` What is its recorded growth inhibition?
Output: -1.45

Task: Consider the compound shown here: `CCCC(SCC(=O)O)SCC(=O)O` What is its recorded growth inhibition?
Output: -4.75

Task: Consider the compound shown here: O=C(NC1CCCCC1NC(c1ccccc1)(c1ccccc1)c1ccccc1)C(=O)NC1CCCCC1NC(c1ccccc1)(c1ccccc1)c1ccccc1 (stereo unspecified) What is its recorded growth inhibition?
Output: -10.1

Task: Consider the compound shown here: `COc1cccc(C2N(Cc3ccccc3OC)CCCN2Cc2ccccc2OC)c1` What is its recorded growth inhibition?
Output: -5.8

Task: Consider the compound shown here: O=C1CCC(C(=O)O)N1 (stereo unspecified) What is its recorded growth inhibition?
Output: 7.7

Task: Consider the compound shown here: CC12C(=O)OC3CCC1CC32 (stereo unspecified) What is its recorded growth inhibition?
Output: 6.65

Task: Consider the compound shown here: `Nc1ccc2nc3c4ccccc4c(O)n3nc2c1` What is its recorded growth inhibition?
Output: -6.2

Task: Consider the compound shown here: `CCOC(=O)C(=N\Nc1ccccc1Br)/C(C)=N\NC(N)=S` What is its recorded growth inhibition?
Output: 9.3

Task: Consider the compound shown here: `O=C1c2ccccc2C(=O)N1CCSCCSCCN1C(=O)c2ccccc2C1=O` What is its recorded growth inhibition?
Output: -7.15
